Provide the recorded MIC for the entries that follow.
- Test system: Klebsiella pneumoniae
- method_notes: Antimicrobial activity against Klebsiella pneumoniae ATCC 10031 by agar dilution method
- Format: functional
- run_parameters: Klebsiella pneumoniae, ATCC 10031; read-out: MIC
Numbers only, in µg/mL.

Answered examples (3):
{"compound_structure": "CCCC(=O)O[C@H]1[C@H](C)O[C@@H](O[C@H]2[C@H](N(C)C)[C@@H](O)[C@H](O[C@H]3[C@@H](CC=O)C[C@@H](C)[C@@H](OC(=O)C(Cl)Cl)/C=C/C=C/C[C@@H](C)OC(=O)C[C@@H](O)[C@@H]3OC)O[C@@H]2C)C[C@@]1(C)O", "MIC (µg/mL)": 25}
{"compound_structure": "CCC(=O)O[C@H]1/C=C/C=C/C[C@@H](C)OC(=O)C[C@@H](OC(C)=O)[C@H](OC)[C@@H](O[C@@H]2O[C@H](C)[C@@H](O[C@H]3C[C@@](C)(O)[C@@H](OC(=O)CC(C)C)[C@H](C)O3)[C@H](N(C)C)[C@H]2O)[C@@H](CC=O)C[C@H]1C", "MIC (µg/mL)": 100}
{"compound_structure": "CO[C@@H]1[C@@H](O[C@@H]2O[C@H](C)[C@@H](O[C@H]3C[C@@](C)(O)[C@@H](OC(=O)CC(C)C)[C@H](C)O3)[C@H](N(C)C)[C@H]2O)[C@@H](CC=O)C[C@@H](C)[C@@H](OC(=O)C(C)C)/C=C/C=C/C[C@@H](C)OC(=O)C[C@H]1OC(C)=O", "MIC (µg/mL)": 100}

Input: Query: MIC; subject: CCCC(=O)O[C@H]1[C@H](C)O[C@@H](O[C@H]2[C@H](N(C)C)[C@@H](O)[C@H](O[C@H]3[C@@H](CC=O)C[C@@H](C)[C@@H](OC(C)=O)/C=C/C=C/C[C@@H](C)OC(=O)C[C@@H](OC(C)=O)[C@@H]3OC)O[C@@H]2C)C[C@@]1(C)O
Output: 100
